quantityMeasured: melting point

Consider the following illustrative entries.
- compound: "CC(Br)C(=O)c1ccc(Br)cc1 (stereo not given)"
  testResult: "85 to 88 °C"
- compound: "Cc1cc2c(c(=O)n1Cc1ccccc1)C(c1ccccc1)C(C#N)=C(N)O2 (stereo not given)"
  testResult: "275 to 277 °C"
- compound: "COc1cc(CNC(=O)c2[nH]c3ccccc3c2CCO)cc(OC)c1"
  testResult: "185 to 187 °C"
- compound: "CC(O)C1(O)CC2C3CCC4(C)CC(O)CCC4(C)C3CCC2(C)C1 (stereo not given)"
  testResult: "220 to 221 °C"
- compound: "OCc1cc(-c2ccco2)on1"
  testResult: "90 to 91 °C"
- compound: "N#Cc1ccccc1N=C=S"
  testResult: "119 to 120 °C"

Returns the measured melting point for the input compound. Input: NS(=O)(=O)c1cc(C(=O)O)c(Cl)cc1Cl
230 to 234 °C

Here is the next compound: CCc1n[nH]c2c1C(c1ccccc1)C(C#N)=C(N)O2 (stereo not given)
192 to 196 °C

Also need COc1cc(O)cc(OC)c1OC , thanks.
146 to 149 °C

Also CC1OC(O)C(O)C(O)C1O (stereo not given) , if possible.
144 to 145 °C

Another: CCCCCCCCCCCN
16.5 °C

Repeat with O=C(O)[C@H]1[C@H](C(=O)O)[C@H]2C=C[C@@H]1C2
185 °C

And then CCOc1cc(OP(=S)(OC)OC)nc(CC)n1 , what is it?
-3.35 °C

# iterate: Cc1cncc(Cl)n1
48 to 52 °C
